- assay-protocol: Example 1: pharmacokinetics after in-clinic subcutaneous dose
- Assay type: in vivo, human
- recorded-conditions: human, blood, sc, 1.25 mg, 1.25 mg SC, Visit 5; read-out: Cmax, Mean
experimental-endpoint: Cmax (ng/mL)
Provide the reading as a plain figure in ng/mL.

Value of measured Cmax for the entry CCCC[C@H](NC(C)=O)C(=O)N[C@H]1CC(=O)NCCCC[C@@H](C(=O)O)NC(=O)[C@H](Cc2c[nH]c3ccccc23)NC(=O)[C@H](CCCNC(=N)N)NC(=O)[C@@H](Cc2ccccc2)NC(=O)[C@H](Cc2c[nH]cn2)NC1=O [bremelanotide] : 60

---

- assay-protocol: Example 1: pharmacokinetics after in-clinic subcutaneous dose
- Type: in vivo, human
- recorded-conditions: human, blood, sc, 1.25 mg, 1.25 mg SC, Visit 7; read-out: AUC(0-4h), Mean
experimental-endpoint: AUC(0-t) (ng·h/mL)
Expressed in ng·h/mL, but write only the number.

Measured AUC(0-t), CCCC[C@H](NC(C)=O)C(=O)N[C@H]1CC(=O)NCCCC[C@@H](C(=O)O)NC(=O)[C@H](Cc2c[nH]c3ccccc23)NC(=O)[C@H](CCCNC(=N)N)NC(=O)[C@@H](Cc2ccccc2)NC(=O)[C@H](Cc2c[nH]cn2)NC1=O [bremelanotide] : 142

---

- assay-protocol: Example 1: pharmacokinetics after in-clinic subcutaneous dose
- Type: in vivo, human
- recorded-conditions: human, blood, sc, 1.25 mg, 1.25 mg SC, Visit 7; read-out: AUC(0-4h), Median
experimental-endpoint: AUC(0-t) (ng·h/mL)
Output spec: scalar in ng·h/mL, unitless text.

Consider CCCC[C@H](NC(C)=O)C(=O)N[C@H]1CC(=O)NCCCC[C@@H](C(=O)O)NC(=O)[C@H](Cc2c[nH]c3ccccc23)NC(=O)[C@H](CCCNC(=N)N)NC(=O)[C@@H](Cc2ccccc2)NC(=O)[C@H](Cc2c[nH]cn2)NC1=O [bremelanotide] . Its measured AUC(0-t) is 144

---

- assay-protocol: Example 1: pharmacokinetics after in-clinic subcutaneous dose
- Format: in vivo, human
- recorded-conditions: human, blood, sc, 0.75 mg, 0.75 mg SC, Visit 7; read-out: AUC(0-2h), Mean
experimental-endpoint: AUC(0-t)
Output should be the measured figure followed by the unit it is expressed in.

The compound listed as CCCC[C@H](NC(C)=O)C(=O)N[C@H]1CC(=O)NCCCC[C@@H](C(=O)O)NC(=O)[C@H](Cc2c[nH]c3ccccc23)NC(=O)[C@H](CCCNC(=N)N)NC(=O)[C@@H](Cc2ccccc2)NC(=O)[C@H](Cc2c[nH]cn2)NC1=O [bremelanotide] has a reported AUC(0-t) of 53 ng·h/mL

---

- assay-protocol: Example 1: pharmacokinetics after in-clinic subcutaneous dose
- Type: in vivo, human
- recorded-conditions: human, blood, sc, 0.75 mg, 0.75 mg SC, Visit 5; read-out: AUC(0-4h), Median
experimental-endpoint: AUC(0-t) (ng·h/mL)
A number alone suffices; assume ng·h/mL.

Value of measured AUC(0-t) for the entry CCCC[C@H](NC(C)=O)C(=O)N[C@H]1CC(=O)NCCCC[C@@H](C(=O)O)NC(=O)[C@H](Cc2c[nH]c3ccccc23)NC(=O)[C@H](CCCNC(=N)N)NC(=O)[C@@H](Cc2ccccc2)NC(=O)[C@H](Cc2c[nH]cn2)NC1=O [bremelanotide] : 80
